Measured values drawn from ChEMBL document CHEMBL4616627 for this set.

protocol_summary: Volume of distribution in human at 2.5 mg
Assay type: ADME
observable: Vd (L)
Report the value in L with no unit label.

Input line: Dear colleague, I am looking for the recorded Vd of the following compound: O=C(N[C@@H]1CC[C@@H](c2cccc(F)c2F)CN(CC(F)(F)F)C1=O)N1CCC(n2c(=O)[nH]c3ncccc32)CC1 [TELCAGEPANT]
Output line: 20

----------
target: Calcitonin-gene-related peptide receptor, CALCRL/RAMP1 (Homo sapiens, UniProt O60894+Q16602)
Sequence (O60894 whole entry): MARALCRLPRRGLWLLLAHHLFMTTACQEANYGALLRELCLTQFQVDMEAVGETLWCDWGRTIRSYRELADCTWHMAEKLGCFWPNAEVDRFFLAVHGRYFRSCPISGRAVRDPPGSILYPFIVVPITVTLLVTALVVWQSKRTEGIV
Sequence (Q16602 whole entry): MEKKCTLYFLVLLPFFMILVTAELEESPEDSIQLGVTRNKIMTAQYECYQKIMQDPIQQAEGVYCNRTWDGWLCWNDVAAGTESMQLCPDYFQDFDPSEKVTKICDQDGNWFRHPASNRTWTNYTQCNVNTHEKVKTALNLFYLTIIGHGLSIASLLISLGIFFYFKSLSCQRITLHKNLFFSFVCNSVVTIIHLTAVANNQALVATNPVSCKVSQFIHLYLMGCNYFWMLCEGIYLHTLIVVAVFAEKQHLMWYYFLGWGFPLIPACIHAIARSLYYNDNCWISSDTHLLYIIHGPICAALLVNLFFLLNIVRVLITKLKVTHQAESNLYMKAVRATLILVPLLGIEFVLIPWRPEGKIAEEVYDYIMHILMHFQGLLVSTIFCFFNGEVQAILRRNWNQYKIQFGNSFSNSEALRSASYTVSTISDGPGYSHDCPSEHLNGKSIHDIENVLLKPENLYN
protocol_summary: Inhibition of human CLR/RAMP1
Format: protein-complex assay
Please provide measured IC50 for the entries that follow.
A number alone suffices; assume nM.

Input line: Query (compound): "NCCCC[C@H](NC(=O)[C@@H](Cc1cc(Br)c(O)c(Br)c1)NC(=O)N1CCC(N(C(N)=O)c2ccccc2)CC1)C(=O)N1CCN(c2ccncc2)CC1" ; field requested: IC50
Output line: 4.7

Input line: Which IC50 reading was recorded for the compound "COc1ccccc1CCNC(=O)N[C@H](Cc1cc(Br)c(O)c(Br)c1)C(=O)N[C@@H](CCCCN)C(=O)N1CCN(c2ccncc2)CC1" ?
Output line: 1000

Input line: Data request, read-out IC50, for "COc1ccccc1C1CCN(C(=O)N[C@H](Cc2cc(Br)c(O)c(Br)c2)C(=O)N[C@@H](CCCCN)C(=O)N2CCN(c3ccncc3)CC2)CC1"
Output line: 250
